Attribution: the kinase profiling compilation of Christmann-Franck et al. (2016)

# measured.on: NEK6 (human) (UniProt Q9HC98)
# Sequence (Q9HC98 whole entry, looked up): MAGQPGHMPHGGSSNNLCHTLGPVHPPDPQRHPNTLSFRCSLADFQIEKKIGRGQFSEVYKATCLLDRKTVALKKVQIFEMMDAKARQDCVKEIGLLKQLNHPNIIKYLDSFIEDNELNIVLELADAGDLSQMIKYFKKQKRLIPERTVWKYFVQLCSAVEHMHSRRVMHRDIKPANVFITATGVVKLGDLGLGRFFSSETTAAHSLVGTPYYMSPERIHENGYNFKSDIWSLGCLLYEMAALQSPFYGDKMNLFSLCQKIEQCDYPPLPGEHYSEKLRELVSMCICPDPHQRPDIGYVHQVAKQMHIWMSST
# procedure.summary: radiometric filter-binding kinase assay
# conditions: compound 0.1 µM
measurement.type: residual activity

Some solved entries appear below for comparison.
molecule	residual activity
Cn1c(=O)c2c(ncn2C)n(C)c1=O	79%
C=CC(=O)N1CCC[C@@H](n2nc(-c3ccc(Oc4ccccc4)cc3)c3c(N)ncnc32)C1	76%
O=C(Nc1nc2cc(C(F)(F)F)cc(NC3CC3)n2n1)c1cccnc1	113%
Cc1cccc(-c2nn(C(=S)Nc3ccccc3)cc2-c2ccnc3ccccc23)n1	107%
CNC(=O)C1[C@H]2O[C@@](C)([C@@H]1N)n1c3ccccc3c3c4c(c5c6ccccc6n2c5c31)C(=O)NC4 (stereo partly specified)	89%

Entry under test: CCCCCc1ccc(/C=C/[C@H](O)[C@@H](CO)NC)cc1 . Its residual activity was 92%
